Attribution: ChEMBL document CHEMBL3714729

target: Casein kinase II subunit alpha' (Homo sapiens, UniProt P19784); test: Inhibition of GST-tagged full-length purified human CK2a2 using RRRDDDSDDD substrate incubated for 120 mins in presence of [33P]ATP by scintillation counting based biochemical assay
Sequence (P19784 whole entry): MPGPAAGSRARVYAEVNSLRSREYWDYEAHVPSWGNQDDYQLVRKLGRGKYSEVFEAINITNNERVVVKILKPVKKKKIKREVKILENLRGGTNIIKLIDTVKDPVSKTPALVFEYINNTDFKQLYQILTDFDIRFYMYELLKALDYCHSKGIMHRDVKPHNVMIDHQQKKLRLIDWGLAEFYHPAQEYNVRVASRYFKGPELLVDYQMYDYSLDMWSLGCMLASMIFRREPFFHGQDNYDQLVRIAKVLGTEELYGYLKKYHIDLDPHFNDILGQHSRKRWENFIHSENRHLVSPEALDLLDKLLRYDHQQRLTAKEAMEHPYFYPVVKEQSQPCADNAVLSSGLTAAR
pIC50: −log10 of the molar value.
measurementKind: pIC50

[[record]]
compoundstring = "O=c1cc(-c2ccc3c(c2)OCCO3)[nH]c2c(-c3ccccc3)cnn12"
target = "Casein kinase II subunit alpha' (Homo sapiens, UniProt P19784)"
result = "≥ 5.00"

[[record]]
compoundstring = "O=c1cc(-c2cc3ccccc3o2)[nH]c2c(-c3ccccn3)cnn12"
target = "Casein kinase II subunit alpha' (Homo sapiens, UniProt P19784)"
result = "≥ 5.00"


// each compound listed below needs its pIC50
1. Cc1nn2c(=O)cc(-c3ccc(OC(C)C)cc3)[nH]c2c1Cc1ccc(Cl)cc1
2. CC(=O)Nc1nn2c(=O)cc(-c3ccc4c(c3)OCO4)[nH]c2c1-c1ccccn1
3. Cc1nn2c(=O)cc(-c3ccc4c(c3)OCCO4)[nH]c2c1-c1ccccn1

Resp:
≤ 5.00
≥ 5.00
≥ 5.00
